measure name: IC50

Enquiry: // map "Nc1ccn([C@@H]2O[C@](CCl)(COP(=O)(O)OP(=O)(O)OP(=O)(O)O)[C@@H](O)[C@H]2F)c(=O)n1" to recorded IC50 (system: IAV polymerase (Influenza A virus, UniProt P03431))
Sequence (P03431 whole entry, looked up): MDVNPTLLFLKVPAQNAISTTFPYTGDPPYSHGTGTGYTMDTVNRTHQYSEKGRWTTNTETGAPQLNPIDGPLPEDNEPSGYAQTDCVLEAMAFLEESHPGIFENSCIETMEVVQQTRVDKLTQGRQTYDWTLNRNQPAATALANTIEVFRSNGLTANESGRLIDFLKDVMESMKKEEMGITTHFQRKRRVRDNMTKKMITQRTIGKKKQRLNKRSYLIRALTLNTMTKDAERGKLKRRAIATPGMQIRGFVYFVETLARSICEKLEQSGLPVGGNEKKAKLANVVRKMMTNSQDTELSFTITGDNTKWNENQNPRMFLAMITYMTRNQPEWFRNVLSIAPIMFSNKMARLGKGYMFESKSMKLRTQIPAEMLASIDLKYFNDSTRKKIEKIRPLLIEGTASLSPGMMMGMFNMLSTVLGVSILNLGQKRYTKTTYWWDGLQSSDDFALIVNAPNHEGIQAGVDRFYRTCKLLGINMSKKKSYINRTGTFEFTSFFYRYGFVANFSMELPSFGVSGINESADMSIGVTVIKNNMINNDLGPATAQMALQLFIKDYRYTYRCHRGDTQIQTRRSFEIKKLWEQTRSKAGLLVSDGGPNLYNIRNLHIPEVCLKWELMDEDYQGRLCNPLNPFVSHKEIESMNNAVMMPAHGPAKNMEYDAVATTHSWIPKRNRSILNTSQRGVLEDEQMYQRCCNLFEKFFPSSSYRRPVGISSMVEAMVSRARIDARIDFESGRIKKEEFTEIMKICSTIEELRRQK
Return: > 100 µM

* * *

# Test system: influenza strain A/WSN/33 (H1N1)
# test details: Influenza assay in A549 cells (neuraminidase readout)
# Format: cell-based
# condition notes: Influenza virus, 20h
pEC50: −log10 of the molar value.
measure name: pEC50

Enquiry: Which pEC50 is reported for this compound? Nc1ccn([C@@H]2O[C@@](CO)(CCl)[C@@H](O)[C@H]2F)c(=O)n1 [ALS-8112]
Return: < 4.00

* * *

# Test system: RSV A and B clinical isolates
# test details: microbe, parasite or virus in culture
# Format: cell-based
# condition notes: human respiratory syncytial virus, HEp-2, Isolate 1262, RSV B
measure name: pEC50
Lab note — pEC50 values are minus log10 of concentrations in M.

Enquiry: Which pEC50 is reported for this molecule? "Nc1ccn([C@@H]2O[C@@](CO)(CCl)[C@@H](O)[C@H]2F)c(=O)n1"
Return: 6.96

* * *

# test details: in vitro
# condition notes: human
measure name: CC50

Enquiry: Which CC50 is reported for this compound? "Nc1ccn([C@@H]2O[C@@](CO)(CCl)[C@@H](O)[C@H]2F)c(=O)n1"
Return: > 100 µM

* * *

# Tested on: RSV A2
# test details: RSV inhibition by qRT-PCR in HEp-2 cells, RSV A2 strain
# Format: cell-based
# condition notes: human respiratory syncytial virus, 120 h; HEp-2 cells, 5 days, qRT-PCR, n = 3; read-out: EC50, inhibition of RNA replication of RSV A2
measure name: pEC50
Lab note — pEC50 values are minus log10 of concentrations in M.

Enquiry: Which pEC50 is reported for this compound? "Nc1ccn([C@@H]2O[C@@](CO)(CCl)[C@@H](O)[C@H]2F)c(=O)n1"
Return: 6.82

* * *

# System: A549
# condition notes: A549 cells; Influenza virus row
measure name: CC50

Enquiry: Which CC50 is reported for this molecule? "Nc1ccn([C@@H]2O[C@@](CO)(CCl)[C@@H](O)[C@H]2F)c(=O)n1"
Return: > 100 µM

* * *

# Test system: RSV A2
# test details: Three-dimensional lung model, primary human tracheal/bronchial epithelial cells infected with RSV A2
# Format: cell-based
# condition notes: human respiratory syncytial virus, Epithelial cell, donor two; Disease: None; read-out: EC50
measure name: EC50 (nM)
Write the answer as a number in nM, unit excluded.

Enquiry: Which EC50 is reported for this compound? Nc1ccn([C@@H]2O[C@@](CO)(CCl)[C@@H](O)[C@H]2F)c(=O)n1 [ALS-8112]
Return: 90

* * *

# System: RSV A and B clinical isolates
# test details: microbe, parasite or virus in culture
# Type: cell-based
# condition notes: human respiratory syncytial virus, HEp-2, Isolate 18537, RSV B
measure name: EC50 (nM)
Write the answer as a number in nM, unit excluded.

Enquiry: // map "Nc1ccn([C@@H]2O[C@@](CO)(CCl)[C@@H](O)[C@H]2F)c(=O)n1" to recorded EC50 (system: RSV A and B clinical isolates)
Return: 210

* * *

What pIC50 was measured for each of the following?
# study target: HCV polymerase (Hepatitis C virus genotype 1b)
# Sequence (Q9WMX2 2420-3010): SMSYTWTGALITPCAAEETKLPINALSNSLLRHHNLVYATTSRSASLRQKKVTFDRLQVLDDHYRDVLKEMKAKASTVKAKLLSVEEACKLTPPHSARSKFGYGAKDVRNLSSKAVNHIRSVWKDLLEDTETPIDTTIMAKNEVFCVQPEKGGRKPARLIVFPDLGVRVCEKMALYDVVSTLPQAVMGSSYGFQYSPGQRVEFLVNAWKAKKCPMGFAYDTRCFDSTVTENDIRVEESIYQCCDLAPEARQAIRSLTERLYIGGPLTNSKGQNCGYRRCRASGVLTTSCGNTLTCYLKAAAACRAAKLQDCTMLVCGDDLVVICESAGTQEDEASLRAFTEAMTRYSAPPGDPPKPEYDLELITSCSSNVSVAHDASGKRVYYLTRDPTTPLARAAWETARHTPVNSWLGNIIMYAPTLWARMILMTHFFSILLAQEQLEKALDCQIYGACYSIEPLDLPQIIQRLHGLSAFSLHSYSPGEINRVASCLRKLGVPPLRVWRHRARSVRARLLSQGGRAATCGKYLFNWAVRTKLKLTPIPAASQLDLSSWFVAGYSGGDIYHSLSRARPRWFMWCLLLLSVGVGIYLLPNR
# test details: HCV polymerase inhibition assay
# Type: biochemical
# condition notes: second symbol of RSV / HCV; read-out: HCV polymerase inhibition class (IC50)
pIC50: −log10 of the molar value.

Enquiry: Which pIC50 is reported for this molecule? [N-]=[N+]=N[C@]1(COP(=O)(O)OP(=O)(O)OP(=O)(O)O)O[C@@H](n2ccc(N)nc2=O)[C@H](F)[C@@H]1O [2'F-4'N3-CTP]
Return: 5.00 to 7.00

Enquiry: Which pIC50 is reported for this molecule? [N-]=[N+]=N[C@]1(COP(=O)(O)OP(=O)(O)OP(=O)(O)O)O[C@@H](n2ccc(N)nc2=O)[C@H](O)[C@@H]1O [4'N3-CTP, reference compound]
Return: > 7.00

Enquiry: Which pIC50 is reported for this molecule? Nc1ccn([C@@H]2O[C@](CCl)(COP(=O)(O)OP(=O)(O)OP(=O)(O)O)[C@@H](O)C2(F)F)c(=O)n1 [2'diF-4'ClCH2-CTP]
Return: < 5.00

Enquiry: Which pIC50 is reported for this molecule? Nc1ccn([C@@H]2O[C@H](COP(=O)(O)OP(=O)(O)OP(=O)(O)O)[C@@H](O)C2(F)F)c(=O)n1 [2'diF-CTP, reference compound]
Return: 5.00 to 7.00

Enquiry: Which pIC50 is reported for this molecule? C[C@@]1(F)[C@H](O)[C@@H](COP(=O)(O)OP(=O)(O)OP(=O)(O)O)O[C@H]1n1ccc(N)nc1=O [mericitabine-TP, 2'F-2'Me-CTP, reference compound]
Return: > 7.00

Enquiry: Which pIC50 is reported for this molecule? Nc1ccn([C@@H]2O[C@](CCl)(COP(=O)(O)OP(=O)(O)OP(=O)(O)O)[C@@H](O)[C@H]2F)c(=O)n1 [ALS-8112-TP]
Return: < 5.00

The reported measurements were obtained from paper PMC4476725.
